Study target: T1, CD96 (UniProt P40200)
T1 sequence (looked up): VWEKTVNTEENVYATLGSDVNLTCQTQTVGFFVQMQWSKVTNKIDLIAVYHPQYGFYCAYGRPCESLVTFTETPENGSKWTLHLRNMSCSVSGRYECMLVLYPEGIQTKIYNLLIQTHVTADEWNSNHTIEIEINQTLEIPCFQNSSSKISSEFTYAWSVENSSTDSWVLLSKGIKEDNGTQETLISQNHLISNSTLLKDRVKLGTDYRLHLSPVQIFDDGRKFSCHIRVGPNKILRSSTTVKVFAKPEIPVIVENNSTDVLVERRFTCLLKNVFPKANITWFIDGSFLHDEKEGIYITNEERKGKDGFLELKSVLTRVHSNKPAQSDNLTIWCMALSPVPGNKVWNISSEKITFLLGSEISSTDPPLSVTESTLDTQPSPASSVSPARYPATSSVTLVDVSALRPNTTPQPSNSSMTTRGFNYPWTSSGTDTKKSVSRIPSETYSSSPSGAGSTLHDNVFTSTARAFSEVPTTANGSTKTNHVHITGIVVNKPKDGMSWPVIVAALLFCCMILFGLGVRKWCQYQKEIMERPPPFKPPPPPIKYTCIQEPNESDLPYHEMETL
Test: flow cytometry, cells
Provide the recorded MFI for the entries that follow.

Please fill in: MFI reported for CD155 P18S, P64S, F91S IgV-Fc (Fc fusion, not shown: a dimerising Fc or GST; small tags and cut ends) PGTGDVVVQAPTQVSGFLGDSVTLPCYLQVPNMEVTHVSQLTWARHGESGSMAVFHQTQGSSYSESKRLEFVAARLGAELRNASLRMSGLRVEDEGNYTCLFVTFPQGSRSVDIWL = 140000

// CD155 P18T, T45A, F91S IgV-Fc (Fc fusion, not shown: a dimerising Fc or GST; small tags and cut ends) PGTGDVVVQAPTQVTGFLGDSVTLPCYLQVPNMEVTHVSQLAWARHGESGSMAVFHQTQGPSYSESKRLEFVAARLGAELRNASLRMSGLRVEDEGNYTCLFVTFPQGSRSVDIWL : MFI value = 191000

Sample CD155 P18T, S42P, F91S IgV-Fc (Fc fusion, not shown: a dimerising Fc or GST; small tags and cut ends) PGTGDVVVQAPTQVTGFLGDSVTLPCYLQVPNMEVTHVPQLTWARHGESGSMAVFHQTQGPSYSESKRLEFVAARLGAELRNASLRMSGLRVEDEGNYTCLFVTFPQGSRSVDIWL ; MFI observed: 135000

What the record says about CD155 G7E, P18T, Y30C, F91S IgV-Fc (Fc fusion, not shown: a dimerising Fc or GST; small tags and cut ends) PGTEDVVVQAPTQVTGFLGDSVTLPCCLQVPNMEVTHVSQLTWARHGESGSMAVFHQTQGPSYSESKRLEFVAARLGAELRNASLRMSGLRVEDEGNYTCLFVTFPQGSRSVDIWL : MFI is 7910

The measured MFI associated with CD155 P18T, Q60K IgV-Fc (Fc fusion, not shown: a dimerising Fc or GST; small tags and cut ends) PGTGDVVVQAPTQVTGFLGDSVTLPCYLQVPNMEVTHVSQLTWARHGESGSMAVFHKTQGPSYSESKRLEFVAARLGAELRNASLRMFGLRVEDEGNYTCLFVTFPQGSRSVDIWL reads 154000

Briefly, MFI measured for CD155 L88P IgV-Fc (Fc fusion, not shown: a dimerising Fc or GST; small tags and cut ends) PGTGDVVVQAPTQVPGFLGDSVTLPCYLQVPNMEVTHVSQLTWARHGESGSMAVFHQTQGPSYSESKRLEFVAARLGAELRNASPRMFGLRVEDEGNYTCLFVTFPQGSRSVDIWL : 35300

Data provenance: patent US20200040059A1
